# STUDY TARGET: Coagulation Factor Xa, from human plasma (human, UniProt P00742 41-488, limits assumed)
# Sequence (P00742 41-488 limits assumed): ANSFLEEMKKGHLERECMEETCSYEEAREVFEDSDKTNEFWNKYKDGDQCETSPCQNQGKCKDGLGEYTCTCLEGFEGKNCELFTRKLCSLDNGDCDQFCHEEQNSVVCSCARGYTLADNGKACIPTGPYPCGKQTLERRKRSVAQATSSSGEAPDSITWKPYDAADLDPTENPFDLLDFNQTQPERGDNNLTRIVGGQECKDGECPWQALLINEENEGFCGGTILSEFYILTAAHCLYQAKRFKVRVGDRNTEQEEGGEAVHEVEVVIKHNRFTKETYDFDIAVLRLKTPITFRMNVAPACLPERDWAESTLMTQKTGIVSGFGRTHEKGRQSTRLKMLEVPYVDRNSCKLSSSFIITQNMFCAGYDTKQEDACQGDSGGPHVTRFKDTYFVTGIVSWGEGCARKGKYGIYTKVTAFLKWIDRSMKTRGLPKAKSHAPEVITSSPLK
# PROCEDURE SUMMARY: cell-based or functional assay
OBSERVABLE: % inhibition at 100 µM (%)
Kindly provide the numeric value in % only, without the unit symbol.

Quick one: % inhibition at 100 µM for RETKSDPPIRF (HELM PEPTIDE1{R.E.T.K.S.D.P.P.I.R.F.[dP].P}$PEPTIDE1,PEPTIDE1,1:R1-13:R2$$$V2.0; SMILES CC[C@H](C)[C@@H]1NC(=O)[C@@H]2CCCN2C(=O)[C@@H]2CCCN2C(=O)[C@H](CC(=O)O)NC(=O)[C@H](CO)NC(=O)[C@H](CCCCN)NC(=O)[C@H]([C@@H](C)O)NC(=O)[C@H](CCC(=O)O)NC(=O)[C@H](CCCNC(=N)N)NC(=O)[C@@H]2CCCN2C(=O)[C@H]2CCCN2C(=O)[C@H](Cc2ccccc2)NC(=O)[C@H](CCCNC(=N)N)NC1=O) [Example 7] ?
11.7

Quick one: % inhibition at 100 µM for FCTKSDPPICS (HELM PEPTIDE1{F.C.T.K.S.D.P.P.I.C.S.[dP].E}$PEPTIDE1,PEPTIDE1,2:R3-10:R3|PEPTIDE1,PEPTIDE1,1:R1-13:R2$$$V2.0; SMILES CC[C@H](C)[C@@H]1NC(=O)[C@@H]2CCCN2C(=O)[C@@H]2CCCN2C(=O)[C@H](CC(=O)O)NC(=O)[C@H](CO)NC(=O)[C@H](CCCCN)NC(=O)[C@H]([C@@H](C)O)NC(=O)[C@@H]2CSSC[C@H](NC1=O)C(=O)N[C@@H](CO)C(=O)N1CCC[C@@H]1C(=O)N[C@@H](CCC(=O)O)C(=O)N[C@@H](Cc1ccccc1)C(=O)N2) [Example 64] ?
0

Taken from patent US20140213531A1.
